Origin of values: ChEMBL document CHEMBL3272172

biological target: Gonadotropin-releasing hormone receptor (Rattus norvegicus); test: Antagonist activity at LH-RH receptor in Sprague-Dawley rat pituitary gland assessed as change in LH-RH-induced follicle-stimulating hormone release at 10 ug/ml preincubated for 2 hrs followed by LH-RH addition at 5th and 6th hr 5 mins post drug addition and measured every hour for 4 hrs by RIA
Square brackets hold non-standard residues; d marks the D form. Peptide text beside a SMILES is read from it. pGlu = O=C1CC[C@@H](C(=O)O)N1
observed_property: Activity (ng/mL)

Some entries whose results are on file:
[
  {
    "compound": "CC(C)C[C@H](NC(=O)CNC(=O)[C@H](Cc1ccc(O)cc1)NC(=O)[C@H](CO)NC(=O)[C@H](CC(C)C)NC(=O)[C@@H](NC(=O)[C@@H]1CCC(=O)N1)[C@@H](C)O)C(=O)N[C@@H](CCCNC(=N)N)C(=O)N1CCC[C@H]1C(=O)NCC(N)=O ([pGlu]TLSYGLRPG-NH2)",
    "value_reported": 3080
  },
  {
    "compound": "CC(C)C[C@H](NC(=O)CNC(=O)[C@H](Cc1ccc(O)cc1)NC(=O)[C@H](CO)NC(=O)[C@H](CO)NC(=O)[C@H](CC(C)C)NC(=O)[C@@H]1CCC(=O)N1)C(=O)N[C@@H](CCCNC(=N)N)C(=O)N1CCC[C@H]1C(=O)NCC(N)=O ([pGlu]LSSYGLRPG-NH2)",
    "value_reported": 6540
  }
]

(P) CC(C)C[C@H](NC(=O)[C@@H]1CCC(=O)N1)C(=O)N[C@@H](C)C(=O)N[C@@H](CO)C(=O)N[C@@H](Cc1ccc(O)cc1)C(=O)N[C@H](C)C(=O)N[C@@H](CC(C)C)C(=O)N[C@@H](CCCNC(=N)N)C(=O)N1CCC[C@H]1C(=O)NCC(N)=O
(Q) CCNC(=O)[C@@H]1CCCN1C(=O)[C@H](CCCNC(=N)N)NC(=O)[C@H](CC(C)C)NC(=O)[C@@H](C)NC(=O)[C@H](Cc1ccc(O)cc1)NC(=O)[C@H](CO)NC(=O)[C@H](C)NC(=O)[C@H](CC)NC(=O)[C@@H]1CCC(=O)N1
Qu. Compare P and Q by numeric Activity and name the larger one. // respond with label for picked entry
Ans. P
(P: 8150 ng/mL, Q: 2970 ng/mL)
